Please go through the items and note down their inhibition.
MEASUREMENT TARGET: Transcription factor Jun (Homo sapiens)
PROTOCOL NOTES: Inhibition of AP1 expressed in HEK293 cells assessed as inhibition of PMA-induced transcriptional activation at 10 uM treated 24 hrs before PMA challenge measured after 20 to 24 hrs by luciferase assay relative to control
Quick note: give the figure in %, leave out the unit.

Please look at CNc1nc(-c2ccccc2)c(-c2nc3ccccc3c(=O)n2-c2ccc(C(C)=O)cc2)s1 and tell me its recorded inhibition on Transcription factor Jun (Homo sapiens).
15

Please look at CNc1nc(C)c(-c2nc3ccccc3c(=O)n2-c2ccc(Cl)cc2)s1 and tell me its recorded inhibition on Transcription factor Jun (Homo sapiens).
82

Please look at O=c1c2ccccc2nc(-c2sc(Nc3ccc(Cl)cc3)nc2-c2ccccc2)n1-c1ccccc1Cl and tell me its recorded inhibition on Transcription factor Jun (Homo sapiens).
0

Please look at Cc1nc(Nc2ccccc2)sc1-c1nc2ccccc2c(=O)n1-c1ccccc1 and tell me its recorded inhibition on Transcription factor Jun (Homo sapiens).
16

Please look at Cc1nc(Nc2ccc(Cl)cc2)sc1-c1nc2ccccc2c(=O)n1-c1ccccc1Cl and tell me its recorded inhibition on Transcription factor Jun (Homo sapiens).
21

Please look at Cc1nc(Nc2ccccc2)sc1-c1nc2ccccc2c(=O)n1-c1ccc(Cl)cc1 and tell me its recorded inhibition on Transcription factor Jun (Homo sapiens).
9

Please look at Cc1cccc(-n2c(-c3sc(Nc4ccc(Cl)cc4)nc3C)nc3ccccc3c2=O)c1 and tell me its recorded inhibition on Transcription factor Jun (Homo sapiens).
39

Please look at Cc1ccc(Nc2nc(-c3ccccc3)c(-c3nc4ccccc4c(=O)n3-c3ccc(Cl)cc3)s2)cc1 and tell me its recorded inhibition on Transcription factor Jun (Homo sapiens).
0

Please look at Cc1nc(Nc2ccc(Cl)cc2)sc1-c1nc2ccccc2c(=O)n1-c1ccc(Cl)cc1 and tell me its recorded inhibition on Transcription factor Jun (Homo sapiens).
84

Please look at CC(=O)c1ccc(-n2c(-c3sc(Nc4ccc(Cl)cc4)nc3C)nc3ccccc3c2=O)cc1 and tell me its recorded inhibition on Transcription factor Jun (Homo sapiens).
2

Please look at CNc1nc(C)c(-c2nc3ccccc3c(=O)n2-c2ccc(C(C)=O)cc2)s1 and tell me its recorded inhibition on Transcription factor Jun (Homo sapiens).
0

Please look at Cc1ccccc1-n1c(-c2sc(Nc3ccccc3)nc2C)nc2ccccc2c1=O and tell me its recorded inhibition on Transcription factor Jun (Homo sapiens).
60

Please look at Nc1nc(Nc2ccc(Cl)cc2)sc1-c1nc2ccccc2c(=O)n1-c1ccc(Cl)cc1 and tell me its recorded inhibition on Transcription factor Jun (Homo sapiens).
0

Please look at CC(=O)c1ccc(-n2c(-c3sc(Nc4ccc(Cl)cc4)nc3N)nc3ccccc3c2=O)cc1 and tell me its recorded inhibition on Transcription factor Jun (Homo sapiens).
2

Please look at Cc1nc(Nc2ccccc2)sc1-c1nc2ccccc2c(=O)n1-c1ccccc1Cl and tell me its recorded inhibition on Transcription factor Jun (Homo sapiens).
21

###

System: Rattus norvegicus
PROTOCOL NOTES: Antiinflammatory activity in Sprague-Dawley rat assessed as protection against carrageenan-induced paw edema at 50 mg/kg, po administered 1 hr before carrageenan challenge measured after 3 hrs relative to control
Type: functional
If the reported Activity equals or exceeds 30%, assign YES. If not, assign NO.

Test whether the compound O=c1c2ccccc2nc(-c2sc(Nc3ccc(Cl)cc3)nc2-c2ccccc2)n1-c1ccccc1Cl records Activity of 30% or higher.
YES

Test whether the compound Cc1nc(Nc2ccc(Cl)cc2)sc1-c1nc2ccccc2c(=O)n1-c1ccccc1 records Activity of 30% or higher.
NO

Test whether the compound Cc1ccc(-n2c(-c3sc(Nc4ccc(Cl)cc4)nc3C)nc3ccccc3c2=O)cc1 records Activity of 30% or higher.
YES

Test whether the compound Cc1nc(Nc2ccc(Cl)cc2)sc1-c1nc2ccccc2c(=O)n1-c1ccccc1Cl records Activity of 30% or higher.
YES

Test whether the compound COc1ccccc1-n1c(-c2sc(Nc3ccc(Cl)cc3)nc2C)nc2ccccc2c1=O records Activity of 30% or higher.
NO
